In this section we review reported pIC50 values for a set of compounds.
target: VEGFR2 tyrosine kinase (Homo sapiens (Human), UniProt P35968); test: Assay of small molecular compounds for inhibiting the activity of VEGFR-2 kinase (LANCE TR-FRET)
Sequence (P35968 20-1356): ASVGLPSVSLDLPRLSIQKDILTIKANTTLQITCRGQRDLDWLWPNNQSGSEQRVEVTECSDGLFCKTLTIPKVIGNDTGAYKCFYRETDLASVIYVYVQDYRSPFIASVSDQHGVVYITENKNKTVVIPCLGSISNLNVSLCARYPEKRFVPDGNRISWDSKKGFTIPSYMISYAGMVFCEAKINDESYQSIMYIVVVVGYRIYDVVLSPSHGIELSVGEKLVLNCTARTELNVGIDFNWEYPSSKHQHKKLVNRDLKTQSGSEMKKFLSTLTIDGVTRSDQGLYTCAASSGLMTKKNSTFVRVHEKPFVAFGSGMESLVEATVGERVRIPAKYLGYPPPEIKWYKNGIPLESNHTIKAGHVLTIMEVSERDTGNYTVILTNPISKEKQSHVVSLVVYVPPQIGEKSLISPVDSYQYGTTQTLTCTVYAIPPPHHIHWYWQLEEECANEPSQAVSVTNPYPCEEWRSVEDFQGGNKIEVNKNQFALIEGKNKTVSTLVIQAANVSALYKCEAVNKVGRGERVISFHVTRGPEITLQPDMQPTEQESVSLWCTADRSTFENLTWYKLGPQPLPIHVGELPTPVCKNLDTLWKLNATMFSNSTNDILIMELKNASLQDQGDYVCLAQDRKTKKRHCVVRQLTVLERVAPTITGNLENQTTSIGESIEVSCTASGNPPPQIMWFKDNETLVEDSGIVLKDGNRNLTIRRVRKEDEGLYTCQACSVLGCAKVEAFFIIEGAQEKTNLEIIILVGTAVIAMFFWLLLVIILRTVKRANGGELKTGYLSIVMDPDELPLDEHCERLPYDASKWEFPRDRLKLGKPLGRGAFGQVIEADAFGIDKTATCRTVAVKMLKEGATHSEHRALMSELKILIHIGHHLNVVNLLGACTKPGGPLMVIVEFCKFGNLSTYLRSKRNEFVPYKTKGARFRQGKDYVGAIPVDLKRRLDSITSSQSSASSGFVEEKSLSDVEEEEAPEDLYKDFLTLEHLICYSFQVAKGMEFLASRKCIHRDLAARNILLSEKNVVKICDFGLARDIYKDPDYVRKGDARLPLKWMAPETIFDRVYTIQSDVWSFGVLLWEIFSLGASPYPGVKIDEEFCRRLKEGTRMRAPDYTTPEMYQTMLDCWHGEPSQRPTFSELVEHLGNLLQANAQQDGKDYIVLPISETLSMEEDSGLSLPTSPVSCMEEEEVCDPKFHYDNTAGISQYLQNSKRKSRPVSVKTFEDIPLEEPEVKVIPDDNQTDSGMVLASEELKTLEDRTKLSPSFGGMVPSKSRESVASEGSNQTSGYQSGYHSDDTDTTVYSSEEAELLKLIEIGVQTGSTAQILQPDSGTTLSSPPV
pIC50: −log10 of the molar value.

These solved cases illustrate the format of a correct answer.
>>> result("CNC(=O)Nc1ccc(Oc2ccnc3cc(OCCCN4CCOCC4)c4c(c23)OCCO4)cc1Cl [Example 85]")
"> 7.30"
>>> result("CN(C)CCCCCCOc1cc2nccc(Oc3ccc(NC(=O)Nc4ccc(Cl)c(C(F)(F)F)c4)cc3)c2c2c1OCCO2 [Example 30]")
"6.30 to 7.30"
>>> result("Cc1ccc(C(F)(F)F)cc1NC(=O)Nc1ccc(Oc2ccnc3cc(OCCCN4CCOCC4)c4c(c23)OCCO4)cc1 [Example 96]")
"6.30 to 7.30"

Next, consider the following compound.
INPUT: What value of pIC50 has been recorded for this entry: COCCN(C)CCCOc1cc2nccc(Oc3ccc(NC(=O)Nc4ccc(Cl)c(C(F)(F)F)c4)cc3)c2c2c1OCCO2 [Example 27]
OUTPUT: 6.30 to 7.30

----------
Here the recorded IC50 is given for each entry.
target: RET tyrosine kinase (Homo sapiens (Human)); experiment: Assay of small molecular compounds for inhibiting the activity of RET kinase (LANCE TR-FRET); conditions: read-out: RET IC50
Sequence (P07949 29-1114): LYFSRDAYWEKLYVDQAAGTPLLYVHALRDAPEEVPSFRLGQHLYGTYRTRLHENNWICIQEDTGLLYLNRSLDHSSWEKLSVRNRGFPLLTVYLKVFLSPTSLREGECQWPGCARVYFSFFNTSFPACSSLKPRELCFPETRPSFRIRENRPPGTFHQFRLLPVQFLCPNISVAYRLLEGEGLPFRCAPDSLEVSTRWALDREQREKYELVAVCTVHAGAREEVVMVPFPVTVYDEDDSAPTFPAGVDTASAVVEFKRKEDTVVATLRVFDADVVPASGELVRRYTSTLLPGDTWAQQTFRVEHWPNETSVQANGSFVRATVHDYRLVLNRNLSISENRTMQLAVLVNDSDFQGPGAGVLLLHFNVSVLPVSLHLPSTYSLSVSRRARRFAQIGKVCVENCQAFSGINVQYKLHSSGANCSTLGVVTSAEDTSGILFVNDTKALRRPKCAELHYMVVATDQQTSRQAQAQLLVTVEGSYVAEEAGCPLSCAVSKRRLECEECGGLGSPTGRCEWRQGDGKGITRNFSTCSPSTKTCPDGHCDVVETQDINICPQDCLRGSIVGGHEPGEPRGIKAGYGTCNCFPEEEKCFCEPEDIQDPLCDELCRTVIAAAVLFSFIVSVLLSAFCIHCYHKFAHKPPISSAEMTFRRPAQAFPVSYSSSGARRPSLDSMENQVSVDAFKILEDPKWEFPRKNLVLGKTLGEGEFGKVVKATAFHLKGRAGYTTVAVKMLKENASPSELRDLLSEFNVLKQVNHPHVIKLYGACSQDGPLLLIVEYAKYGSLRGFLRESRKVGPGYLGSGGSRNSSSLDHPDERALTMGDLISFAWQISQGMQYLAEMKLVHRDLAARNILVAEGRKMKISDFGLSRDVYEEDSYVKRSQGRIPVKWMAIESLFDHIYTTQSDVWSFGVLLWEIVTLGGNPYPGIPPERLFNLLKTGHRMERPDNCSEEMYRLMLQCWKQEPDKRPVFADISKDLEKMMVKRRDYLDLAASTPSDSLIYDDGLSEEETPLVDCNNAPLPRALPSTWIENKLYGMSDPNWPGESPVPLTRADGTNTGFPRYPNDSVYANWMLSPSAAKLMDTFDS

Use the examples below as a reference point.
>>> result("COc1cc2nccc(Oc3ccc(NC(=O)NC(C)C)c(Cl)c3)c2c2c1OCCO2")
"< 50 nM"
>>> result("COc1cc2nccc(Oc3ccc(NC(=O)Nc4ccc(Cl)c(C(F)(F)F)c4)c(F)c3)c2c2c1OCCO2")
"< 50 nM"

INPUT: Give the measured IC50 of COCCN(C)CCCOc1cc2nccc(Oc3ccc(NC(=O)Nc4ccc(Cl)c(C(F)(F)F)c4)cc3)c2c2c1OCCO2 .
OUTPUT: < 50 nM

INPUT: Quick one: IC50 for O=C(Nc1ccc(Oc2ccnc3cc(OCCCO)c4c(c23)OCCO4)cc1Cl)NC1CC1 ?
OUTPUT: < 50 nM

INPUT: Requested field: IC50. Item: CC(C)Oc1cc2nccc(Oc3ccc(NC(=O)NC4CC4)c(Cl)c3)c2c2c1OCCO2
OUTPUT: < 50 nM

INPUT: Value lookup for IC50; key = COCCOc1cc2nccc(Oc3ccc(NC(=O)NC4CC4)c(Cl)c3)c2c2c1OCCO2
OUTPUT: < 50 nM

INPUT: Query (compound): COc1cc2nccc(Oc3ccc(NC(=O)Nc4cc(C(F)(F)F)ccc4C)cc3)c2c2c1OCCO2 ; field requested: IC50
OUTPUT: < 50 nM

INPUT: Data request, read-out IC50, for O=C(Nc1ccc(Oc2ccnc3cc(OCCCN4CCOCC4)c4c(c23)OCCO4)cc1Cl)NC1CCC1
OUTPUT: < 50 nM

INPUT: Returns the measured IC50 for the input compound. Input: N#CCOc1cc2nccc(Oc3ccc(NC(=O)NC4CC4)c(Cl)c3)c2c2c1OCCO2
OUTPUT: < 50 nM

INPUT: Quick one: IC50 for CN1CCN(CCCOc2cc3nccc(Oc4ccc(NC(=O)Nc5ccc(Cl)c(C(F)(F)F)c5)cc4)c3c3c2OCCO3)CC1 ?
OUTPUT: < 50 nM

INPUT: Using the record for CC1(C)CCN(CCCOc2cc3nccc(Oc4ccc(NC(=O)NC5CC5)c(Cl)c4)c3c3c2OCCO3)CC1 , report its IC50.
OUTPUT: < 50 nM

INPUT: Recorded IC50 for CN1CCN(CCCOc2cc3nccc(Oc4ccc(NC(=O)NC5CC5)c(Cl)c4)c3c3c2OCCO3)CC1 , please?
OUTPUT: < 50 nM

INPUT: Fill in the blank: the reported IC50 of CC(=O)N1CCN(CCCOc2cc3nccc(Oc4ccc(NC(=O)NC5CC5)c(Cl)c4)c3c3c2OCCO3)CC1 is ____.
OUTPUT: < 50 nM

INPUT: Using the record for CC1(O)CCN(CCCOc2cc3nccc(Oc4ccc(NC(=O)Nc5ccc(Cl)c(C(F)(F)F)c5)cc4)c3c3c2OCCO3)CC1 , report its IC50.
OUTPUT: < 50 nM

INPUT: Can you look up the measured IC50 of CNC(=O)Nc1ccc(Oc2ccnc3cc(OC)c4c(c23)OCCO4)cc1Cl for me?
OUTPUT: < 50 nM
